test system: Phospho-Rb (Ser807/811); assay: Phospho-Retinoblastoma (pRB) Cellular Assay; type: cell-based; settings: Homo sapiens, OVCAR-3; NIH OVCAR3 cells, 24 hours; concentration giving 50% response
This listing pairs compounds with measured pIC50.
Kindly note that pIC50 refers to -log10 of the concentration in mol/L and answer with the value alone.

O=C1CCC(N2Cc3ccc(COC(=O)Nc4ccc(Oc5ccc(F)c(F)c5)cc4)c(O[C@@H]4CCCOC4)c3C2=O)C(=O)N1 (stereo partly shown) [Example 141] | 7.26
COc1c(COC(=O)Nc2ccc(Oc3ccc(F)c(F)c3)cc2)ccc2c1C(=O)N(C1CCC(=O)NC1=O)C2 (stereo not shown) [Example 1] | 6.88
O=C1CCC(N2Cc3ccc(COC(=O)Nc4ccc(Oc5ccc(F)c(F)c5)cc4)c(Oc4cccnc4)c3C2=O)C(=O)N1 (stereo not shown) [Example 172] | 6.93
COc1c(COC(=O)Nc2ccc(Oc3ccc4sccc4c3)cc2)ccc2c1C(=O)N(C1CCC(=O)NC1=O)C2 (stereo not shown) [Example 114] | 6.19
COc1c(COC(=O)Nc2ccc(Cc3ccc(F)c(F)c3)cc2)ccc2c1C(=O)N(C1CCC(=O)NC1=O)C2 (stereo not shown) [Example 17] | 6.65
O=C1CCC(N2Cc3ccc(COC(=O)Nc4ccc(Oc5cccc(F)c5)cc4)c(Oc4ccccc4)c3C2=O)C(=O)N1 (stereo not shown) [Example 64] | 7.08

Okay, now this compound:
# pIC50 of O=C1CCC(N2Cc3ccc(COC(=O)Nc4ccc(Oc5ccc(F)cc5Cl)cc4)c(O[C@@H]4CCOC4)c3C2=O)C(=O)N1 (stereo partly shown) [Example 155] = 6.73

----------
target: Cyclin E1 (Homo sapiens, UniProt P24864+Q96SW2); test: Cyclin E1 Cellular Degradation Assay (MSD); assay type: cell-based; set-up: endogenous in cells; host or cells: OVCAR3; details: Cyclin E1 cellular degradation
Sequence (P24864 whole entry): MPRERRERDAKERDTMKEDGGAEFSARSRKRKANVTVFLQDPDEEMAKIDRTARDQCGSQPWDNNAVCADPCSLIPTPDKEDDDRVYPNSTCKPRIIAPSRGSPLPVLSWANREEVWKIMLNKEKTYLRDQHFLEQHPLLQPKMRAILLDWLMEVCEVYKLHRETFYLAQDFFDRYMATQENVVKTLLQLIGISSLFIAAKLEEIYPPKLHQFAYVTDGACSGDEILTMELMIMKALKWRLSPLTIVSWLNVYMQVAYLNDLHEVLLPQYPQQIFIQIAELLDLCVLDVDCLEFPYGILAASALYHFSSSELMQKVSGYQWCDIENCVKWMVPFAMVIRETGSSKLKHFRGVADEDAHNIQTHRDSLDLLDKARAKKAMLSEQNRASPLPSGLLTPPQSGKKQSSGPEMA
Sequence (Q96SW2 whole entry): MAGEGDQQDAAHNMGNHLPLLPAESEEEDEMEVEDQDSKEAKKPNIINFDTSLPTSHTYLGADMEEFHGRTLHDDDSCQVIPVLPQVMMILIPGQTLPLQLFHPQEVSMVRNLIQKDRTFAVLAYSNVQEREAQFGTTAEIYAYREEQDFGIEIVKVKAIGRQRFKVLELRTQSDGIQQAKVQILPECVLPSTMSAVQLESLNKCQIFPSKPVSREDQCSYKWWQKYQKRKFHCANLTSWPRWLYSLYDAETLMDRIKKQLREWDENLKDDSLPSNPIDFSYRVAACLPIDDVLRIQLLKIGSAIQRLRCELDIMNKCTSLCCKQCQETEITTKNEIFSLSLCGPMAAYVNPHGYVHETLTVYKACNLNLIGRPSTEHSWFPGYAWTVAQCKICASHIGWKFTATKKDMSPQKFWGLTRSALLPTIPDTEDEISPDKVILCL
Sequence (Q16531 whole entry partner): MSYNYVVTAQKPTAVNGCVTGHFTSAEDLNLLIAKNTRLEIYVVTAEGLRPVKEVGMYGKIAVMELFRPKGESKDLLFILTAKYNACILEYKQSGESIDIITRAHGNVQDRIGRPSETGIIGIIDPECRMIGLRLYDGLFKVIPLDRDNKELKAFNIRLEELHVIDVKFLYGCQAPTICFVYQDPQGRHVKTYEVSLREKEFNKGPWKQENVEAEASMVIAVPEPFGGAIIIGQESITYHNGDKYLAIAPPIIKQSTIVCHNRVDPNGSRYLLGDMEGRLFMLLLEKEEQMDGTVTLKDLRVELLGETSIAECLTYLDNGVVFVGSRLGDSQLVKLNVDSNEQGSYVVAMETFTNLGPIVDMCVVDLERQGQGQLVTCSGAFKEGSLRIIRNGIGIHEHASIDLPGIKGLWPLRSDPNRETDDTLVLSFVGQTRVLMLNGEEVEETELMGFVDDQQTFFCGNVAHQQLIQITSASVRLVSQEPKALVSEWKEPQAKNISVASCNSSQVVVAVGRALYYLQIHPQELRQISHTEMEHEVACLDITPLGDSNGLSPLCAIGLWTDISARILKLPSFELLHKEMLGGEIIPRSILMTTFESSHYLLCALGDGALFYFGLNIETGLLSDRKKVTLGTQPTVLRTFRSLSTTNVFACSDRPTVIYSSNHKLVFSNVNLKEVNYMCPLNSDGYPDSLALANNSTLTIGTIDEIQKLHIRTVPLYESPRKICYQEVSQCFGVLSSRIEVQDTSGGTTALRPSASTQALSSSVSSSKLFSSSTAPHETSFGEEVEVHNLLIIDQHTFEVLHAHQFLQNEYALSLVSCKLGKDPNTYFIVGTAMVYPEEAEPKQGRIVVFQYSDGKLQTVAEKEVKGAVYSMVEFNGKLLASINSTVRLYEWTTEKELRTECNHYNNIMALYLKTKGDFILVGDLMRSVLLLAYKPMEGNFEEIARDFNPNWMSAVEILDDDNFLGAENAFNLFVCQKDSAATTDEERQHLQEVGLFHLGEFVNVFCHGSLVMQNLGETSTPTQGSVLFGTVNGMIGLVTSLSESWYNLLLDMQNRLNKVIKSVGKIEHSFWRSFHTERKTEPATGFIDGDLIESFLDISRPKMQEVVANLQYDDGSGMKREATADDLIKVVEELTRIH
Let's look at some compounds and their measured DC50.
Could you give me the number in nM? Just the number is fine.

O=C1CCC(N2Cc3ccc(COC(=O)Nc4ccc(Oc5cccc(F)c5F)cc4)c(Oc4ccccc4)c3C2=O)C(=O)N1 (stereo not shown) | 179
COCCOc1c(COC(=O)Nc2ccc(Oc3ccc(F)c(F)c3)cc2F)ccc2c1C(=O)N(C1CCC(=O)NC1=O)C2 (stereo not shown) | 88
O=C1CCC(N2Cc3ccc(COC(=O)Nc4ccc(Oc5ccc(F)c(F)c5)cc4F)c(O[C@@H]4CCOC4)c3C2=O)C(=O)N1 (stereo partly shown) | 147

NC(=O)COc1c(COC(=O)Nc2ccc(Oc3ccc(F)c(F)c3)cc2)ccc2c1C(=O)N(C1CCC(=O)NC1=O)C2 (stereo not shown) has a reported DC50 of 179

----------
target: Cyclin E1 (Homo sapiens, UniProt P24864+Q96SW2); test: Cyclin E1 Cellular Degradation Assay (MSD); assay type: cell-based; design: endogenous in cells; host or cells: OVCAR3; conditions: selectivity for degradation of Cyclin E1 over GSPT1
Assay Readout: Ratio of GSPT1 DC50/Cyclin E1 DC50

Check out these entries, answers already filled in.
O=C1CCC(N2Cc3ccc(COC(=O)Nc4ccc(Oc5ccc(F)c(F)c5)cc4F)c(OC4CCOCC4)c3C2=O)C(=O)N1 (stereo not shown) [Example 132] | >693
O=C1CCC(N2Cc3ccc(COC(=O)Nc4ccc(Oc5ccccc5Cl)cc4)c(Oc4ccccc4)c3C2=O)C(=O)N1 (stereo not shown) [Example 66] | >126
O=C1CCC(N2Cc3ccc(COC(=O)Nc4ccc(Oc5ccc(F)c(F)c5)cc4)c(OC4CCOCC4)c3C2=O)C(=O)N1 (stereo not shown) [Example 130] | >738

Per the record, O=C1CCC(N2Cc3ccc(COC(=O)Nc4ccc(Oc5ccccc5)cc4)c(OC4CCOCC4)c3C2=O)C(=O)N1 (stereo not shown) [Example 134] has Ratio of GSPT1 DC50/Cyclin E1 DC50 of >1,066

Origin of measurements: patent US20250084056A1
